test system: plants; experiment: Test D post-emergence, other plants of Tables D2 and D4; assay type: in vivo; conditions: post-emergence, PANMI, rate 500, evaluated after 15 d
MEASUREMENT_LABEL: damage to plant (100=total damage to plant; 0=no damage to plant), PANMI
Just the number, please.

COc1c(F)cccc1NC(=O)C1C(=O)N(C)CC1c1cc(C(F)(F)F)n(C)n1 (racemic)
10

Reported damage to plant (100=total damage to plant; 0=no damage to plant), PANMI for CN1CC(c2cc(C(F)(F)F)n(C)n2)C(C(=O)Nc2cccc(F)c2F)C1=O (racemic) was 0

Documented damage to plant (100=total damage to plant; 0=no damage to plant), PANMI of CN1CC(c2cc(C(F)(F)F)n(C)n2)C(C(=O)Nc2cccc(F)n2)C1=O (racemic) : 10

Form field damage to plant (100=total damage to plant; 0=no damage to plant), PANMI, entry CCn1nc([C@@H]2CN(C)C(=O)[C@H]2C(=O)Nc2cccc(F)c2F)c2cccc(F)c21 : 0

###

Below: a set of entries, each annotated with reported damage to plant, POAAN.
tested on: plants; assay: Test D pre-emergence, other plants of Tables D1 and D3; assay type: in vivo; settings: pre-emergence, rate 60, 20 DAA, 100=total damage, 0=no damage
Just the number.

Some compounds with known damage to plant, POAAN results, for comparison:
CN1C[C@H](c2nn(C)c3c(F)cccc23)[C@@H](C(=O)Nc2cccc(F)c2F)C1=O
0
CCn1nc([C@@H]2CN(C)C(=O)[C@H]2C(=O)Nc2cccc(F)c2F)c2cccc(F)c21
0
CN1CC(c2cc(C(F)(F)F)n(C)n2)C(C(=O)Nc2cccc(F)c2C(F)(F)F)C1=O (racemic)
10
CCn1nc([C@H]2CN(C)C(=O)[C@@H]2C(=O)Nc2cccc(F)c2F)c2c(F)cccc21
0
COc1c(F)cccc1NC(=O)C1C(=O)N(C)CC1c1cc(C(F)(F)F)n(C)n1 (racemic)
40

Now for the compound whose damage to plant, POAAN we want.
The reported damage to plant, POAAN of the compound CN1CC(c2cc(C(F)(F)F)n(C)n2)C(C(=O)Nc2cccc(F)c2F)C1=O (racemic) was 20

###

test system: plants; assay: Test D pre-emergence, other plants of Tables D1 and D3; format: in vivo; details: BRAPL; preemergent; rate 250; 20 DAA
MEASUREMENT_LABEL: damage to plant (100=total damage to plant; 0=no damage to plant), BRAPL

Some entries whose results are on file:
CN1C[C@H](c2nn(C)c3c(F)cccc23)[C@@H](C(=O)Nc2cccc(F)c2F)C1=O
90
CN1CC(c2cc(C(F)(F)F)n(C)n2)C(C(=O)Nc2ccc(F)cc2C(C)(F)F)C1=O (racemic)
80
CN1CC(c2cc(C(F)(F)F)n(C)n2)C(C(=O)Nc2ccc(F)nc2F)C1=O (racemic)
90
CN1CC(c2cc(C(F)(F)F)n(C)n2)C(C(=O)Nc2ccccc2F)C1=O (racemic)
100

I looked up CN1CC(c2cc(C(F)(F)F)n(C)n2)C(C(=O)Nc2cccc(F)n2)C1=O (racemic) and its damage to plant (100=total damage to plant; 0=no damage to plant), BRAPL for plants was 80

Tested on plants: CN1CC(c2cnn(C)c2C(F)(F)F)C(C(=O)Nc2cccc(F)c2F)C1=O (racemic) . Observed damage to plant (100=total damage to plant; 0=no damage to plant), BRAPL: 90

// damage to plant (100=total damage to plant; 0=no damage to plant), BRAPL (plants) for CN1CC(c2cc(C(F)(F)F)n(C)n2)C(C(=O)Nc2cccc(F)c2F)C1=O (racemic) = 100

Value (damage to plant (100=total damage to plant; 0=no damage to plant), BRAPL, plants) for record COc1c(F)cccc1NC(=O)C1C(=O)N(C)CC1c1cc(C(F)(F)F)n(C)n1 (racemic) = 80
